- System: parent elite stiff stalk inbred corn
- assay details: Postemergence effect of ALS herbicides, glyphosate and glufosinate (fresh weight, visual injury)
- condition parameters: 200 g/ha (glyphosate 3472 g ae/ha, glufosinate ammonium 1870 g/ha), 2 weeks after treatment, 0% no injury, 100% plant death, mean of four replications
Criterion: % Visual Injury Parent elite stiff stalk inbred meeting or surpassing 90%. Met: label 1. Not met: label 0.

molecule	assayed target	group label
CCOC(=O)c1ccccc1S(=O)(=O)NC(=O)Nc1nc(Cl)cc(OC)n1	parent elite stiff stalk inbred corn	label 1
COCc1cnc(C2=NC(C)(C(C)C)C(=O)N2)c(C(=O)O)c1 (stereo not drawn)	parent elite stiff stalk inbred corn	label 1
COc1cc(OC)nc(NC(=O)NS(=O)(=O)c2ncccc2C(=O)N(C)C)n1	parent elite stiff stalk inbred corn	label 0
CO/N=C(/C)c1cccc(Oc2nc(OC)cc(OC)n2)c1C(=O)OC	parent elite stiff stalk inbred corn	label 1
COC(=O)c1ccccc1S(=O)(=O)NC(=O)Nc1nc(C)cc(C)n1	parent elite stiff stalk inbred corn	label 1
CC(C)C1(C)N=C(c2nc3ccccc3cc2C(=O)O)NC1=O (stereo not drawn)	parent elite stiff stalk inbred corn	label 1
Cc1ccn2nc(S(=O)(=O)Nc3c(F)cccc3F)nc2n1	parent elite stiff stalk inbred corn	label 0
CCCOc1nn(C(=O)NS(=O)(=O)c2ccccc2C(=O)OC)c(=O)n1C	parent elite stiff stalk inbred corn	label 1

----------
- Test system: heterozygous GAT-HRA corn
- assay details: Preemergence effect of ALS herbicides (fresh weight, visual injury)
- condition parameters: 200 g/ha, 4 weeks after treatment, 0% no injury, 100% plant death, mean of four replications
Criterion: % Visual Injury Heterozygous GAT-HRA meeting or surpassing 10%. Met: 1. Not met: -1.

molecule	group label
COc1cc(OC)nc(NC(=O)NS(=O)(=O)c2ncccc2OCC(F)(F)F)n1 [Trifloxysulfuron Na^+]	-1
CCOc1ccccc1OS(=O)(=O)NC(=O)Nc1nc(OC)cc(OC)n1 [Ethoxysulfuron]	1
CC(C)C1(C)N=C(c2ncccc2C(=O)O)NC1=O (centres unmarked) [Imazapyr]	1
COc1cc(OC)nc(Sc2cccc(Cl)c2C(=O)[O-])n1.[Na+] [Pyrithiobac Na^+, pyrithiobac-sodium]	-1
COCc1cnc(C2=NC(C)(C(C)C)C(=O)N2)c(C(=O)O)c1 (centres unmarked) [Imazamox]	1
CCS(=O)(=O)c1nc2ccccn2c1S(=O)(=O)NC(=O)Nc1nc(OC)cc(OC)n1 [Sulfosulfuron]	1
CCc1cnc(C2=NC(C)(C(C)C)C(=O)N2)c(C(=O)O)c1 (centres unmarked) [Imazethapyr]	1
CCCOc1nn(C(=O)NS(=O)(=O)c2ccccc2C(=O)OC)c(=O)n1C [Propoxycarbazone Na^+]	1

----------
- Tested on: parent elite stiff stalk inbred corn
- assay details: Postemergence effect of ALS herbicides, glyphosate and glufosinate (fresh weight, visual injury)
- condition parameters: applied two weeks after planting, 200 g/ha (glyphosate 3472 g ae/ha, glufosinate ammonium 1870 g/ha), fresh shoots 2 weeks after treatment, mean of four replications, untreated 76.4 g
Recorded Fresh Weight (g) Parent elite stiff stalk inbred, one value per entry.
reported property: Fresh Weight (g) Parent elite stiff stalk inbred

compound	data value
COC(=O)c1ccccc1S(=O)(=O)NC(=O)Nc1nc(C)cc(C)n1	2.0
COc1cc(OC)nc(NC(=O)NS(=O)(=O)c2ncccc2OCC(F)(F)F)n1	1.0
COc1cc(OC)nc(NC(=O)NS(=O)(=O)c2ncccc2C(=O)N(C)C)n1	62.7
COc1cc(OC)nc(Sc2cccc(Cl)c2C(=O)[O-])n1.[Na+] [Pyrithiobac Na^+, pyrithiobac-sodium]	2.8
